assayed system: T1, cSNK:BSA conjugate (bovine, head-to-tail cyclized; conjugated to BSA carrier)
T1 construct: also called BSA-cSNK
T1 sequence (P02769 25-607 limits assumed): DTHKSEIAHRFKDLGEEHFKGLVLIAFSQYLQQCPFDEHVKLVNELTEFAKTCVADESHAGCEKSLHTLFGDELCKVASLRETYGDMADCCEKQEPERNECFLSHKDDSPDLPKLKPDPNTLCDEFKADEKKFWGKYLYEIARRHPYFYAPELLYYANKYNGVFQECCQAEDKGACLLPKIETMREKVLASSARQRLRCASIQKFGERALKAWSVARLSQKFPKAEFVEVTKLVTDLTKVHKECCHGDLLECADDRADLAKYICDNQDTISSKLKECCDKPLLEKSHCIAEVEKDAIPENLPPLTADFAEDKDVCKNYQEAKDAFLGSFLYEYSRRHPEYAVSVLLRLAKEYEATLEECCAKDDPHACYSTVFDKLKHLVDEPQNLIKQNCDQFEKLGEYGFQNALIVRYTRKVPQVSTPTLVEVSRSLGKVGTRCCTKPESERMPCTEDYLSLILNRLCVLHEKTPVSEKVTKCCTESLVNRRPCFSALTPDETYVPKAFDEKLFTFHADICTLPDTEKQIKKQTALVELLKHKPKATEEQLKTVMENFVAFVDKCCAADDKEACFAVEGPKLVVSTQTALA
experimental details: BLI 2:1 fit, site 2 (kon2); 3.13 nM row
The following binders are listed with their measured kon values.
Please state the figure in M⁻¹ s⁻¹; there is no need to write the unit.

>>> experimental_value("hu5E3-IgG2 (antibody, V domains shown, human IgG2/kappa; also called humanized 5E3 IgG2) VH: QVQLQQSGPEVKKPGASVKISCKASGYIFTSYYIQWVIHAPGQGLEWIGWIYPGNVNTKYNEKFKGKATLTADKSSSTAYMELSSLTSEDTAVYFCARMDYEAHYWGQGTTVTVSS VL: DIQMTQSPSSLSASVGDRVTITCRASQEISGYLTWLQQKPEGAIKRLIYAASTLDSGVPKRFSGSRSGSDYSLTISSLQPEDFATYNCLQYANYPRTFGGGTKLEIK")
"5.28e+06"
>>> experimental_value("hu5E3-IgG4 (antibody, V domains shown, human IgG4/kappa; also called humanized 5E3 IgG4) VH: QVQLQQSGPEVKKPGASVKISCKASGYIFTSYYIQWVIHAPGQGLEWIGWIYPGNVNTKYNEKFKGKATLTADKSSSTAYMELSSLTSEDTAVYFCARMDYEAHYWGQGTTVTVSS VL: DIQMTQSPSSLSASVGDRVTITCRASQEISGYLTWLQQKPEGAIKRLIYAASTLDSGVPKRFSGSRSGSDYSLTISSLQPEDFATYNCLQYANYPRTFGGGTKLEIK")
"7.52e+06"
>>> experimental_value("rehu5E3-IgG4 (antibody, V domains shown, human IgG4/kappa; also called IgG4 rehu version) VH: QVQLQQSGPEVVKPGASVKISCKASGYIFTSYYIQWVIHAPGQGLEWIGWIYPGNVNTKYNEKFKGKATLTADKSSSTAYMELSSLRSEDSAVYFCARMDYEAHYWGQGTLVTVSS VL: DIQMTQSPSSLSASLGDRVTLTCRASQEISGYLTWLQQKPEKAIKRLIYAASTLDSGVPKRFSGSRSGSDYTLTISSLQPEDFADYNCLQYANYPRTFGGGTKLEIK")
"4.44e+06"

Attention now turns to another entry.
Lookup: // query kon value for entry murine monoclonal antibody 5E3 (antibody, V domains shown, mouse antibody of the 5E3 hybridoma; also called murine 5E3; m5E3) VH: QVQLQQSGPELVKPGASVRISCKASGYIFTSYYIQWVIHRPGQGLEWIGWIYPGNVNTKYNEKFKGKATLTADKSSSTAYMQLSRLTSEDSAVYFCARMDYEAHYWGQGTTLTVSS VL: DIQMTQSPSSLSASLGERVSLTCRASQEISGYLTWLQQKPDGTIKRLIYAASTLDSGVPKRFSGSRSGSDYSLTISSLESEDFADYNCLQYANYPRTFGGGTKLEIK
Found: 1.42e+07
